Numbers sourced from patent US20220195057A1.

- subject.of.test: T1, human chemokine (C-C motif) receptor 8 (CCR8) protein (human, UniProt P51685 1-355)
- T1 construct: whole, on cells; also called human CCR8
- assay.overview: cell binding, CCR8-expressing CHO-K1 cells, curve fit
measurement.kind: Top
No unit in the answer, only the number.

{"binder": "137-H3L3 (antibody, V domains shown, Humanized 137D1H10) VH: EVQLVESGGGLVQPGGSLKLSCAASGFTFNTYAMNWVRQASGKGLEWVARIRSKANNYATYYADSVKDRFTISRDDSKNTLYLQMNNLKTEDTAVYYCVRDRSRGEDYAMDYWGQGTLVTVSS VL: DIVMTQSPLSLPVTPGEPVSISCRSSKSLLHSNANTYLYWFLQKPGQSPQLLIYRMSNLASGVPDRFSGSGSGTAFTLKISRVEAEDVGVYYCMQHLEYPFTFGQGTKLEIK", "measurement.kind": "Top", "test.value": 33400}
{"binder": "137-H2L3 (antibody, V domains shown, Humanized 137D1H10) VH: EVQLVESGGGLVQPGGSLKLSCAASGFTFNTYAMNWVRQASGKGLEWVGRIRSKANNYATYYADSVKDRFTISRDDSKNTAYLQMNNLKTEDTAVYYCVRDRSRGEDYAMDYWGQGTLVTVSS VL: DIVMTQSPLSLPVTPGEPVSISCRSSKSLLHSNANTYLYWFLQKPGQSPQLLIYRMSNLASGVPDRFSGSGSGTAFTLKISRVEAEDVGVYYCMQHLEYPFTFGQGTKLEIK", "measurement.kind": "Top", "test.value": 30200}
{"binder": "137-xi (antibody, V domains shown, also called 137D1H10; chimeric 137D1H10) VH: EVQLVESGGGLVQPKGSLKLSCTASGFTFNTYAMNWVRQAPGKGLEWVARIRSKANNYATYYADSVKDRFTISRDDSQRILYLQMNNLKAEDTAMYYCVRDRSRGEDYAMDYWGQGTSVTVSS VL: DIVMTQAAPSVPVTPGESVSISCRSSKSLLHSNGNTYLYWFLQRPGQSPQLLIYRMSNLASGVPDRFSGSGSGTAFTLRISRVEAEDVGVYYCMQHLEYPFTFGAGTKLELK", "measurement.kind": "Top", "test.value": 34900}
{"binder": "137-H2L2 (antibody, V domains shown, Humanized 137D1H10) VH: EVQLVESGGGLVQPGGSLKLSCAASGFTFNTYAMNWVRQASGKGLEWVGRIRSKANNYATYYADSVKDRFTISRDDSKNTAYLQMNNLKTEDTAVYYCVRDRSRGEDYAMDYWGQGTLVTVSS VL: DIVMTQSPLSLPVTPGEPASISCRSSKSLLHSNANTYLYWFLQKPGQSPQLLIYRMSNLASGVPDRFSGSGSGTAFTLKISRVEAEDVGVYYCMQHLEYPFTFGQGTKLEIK", "measurement.kind": "Top", "test.value": 29300}

Consider the record given below.
response.value for 137-H3L2 (LM-108) (antibody, V domains shown, Humanized 137D1H10; Detected with anti-human IgG) VH: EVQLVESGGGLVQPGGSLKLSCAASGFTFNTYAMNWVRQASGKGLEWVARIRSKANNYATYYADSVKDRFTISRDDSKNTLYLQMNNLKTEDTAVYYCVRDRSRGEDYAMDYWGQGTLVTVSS VL: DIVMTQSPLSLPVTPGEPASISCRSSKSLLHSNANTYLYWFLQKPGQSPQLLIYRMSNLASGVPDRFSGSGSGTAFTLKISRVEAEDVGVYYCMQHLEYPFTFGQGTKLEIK (field: Top) = 33200
